Protein target, amino acids: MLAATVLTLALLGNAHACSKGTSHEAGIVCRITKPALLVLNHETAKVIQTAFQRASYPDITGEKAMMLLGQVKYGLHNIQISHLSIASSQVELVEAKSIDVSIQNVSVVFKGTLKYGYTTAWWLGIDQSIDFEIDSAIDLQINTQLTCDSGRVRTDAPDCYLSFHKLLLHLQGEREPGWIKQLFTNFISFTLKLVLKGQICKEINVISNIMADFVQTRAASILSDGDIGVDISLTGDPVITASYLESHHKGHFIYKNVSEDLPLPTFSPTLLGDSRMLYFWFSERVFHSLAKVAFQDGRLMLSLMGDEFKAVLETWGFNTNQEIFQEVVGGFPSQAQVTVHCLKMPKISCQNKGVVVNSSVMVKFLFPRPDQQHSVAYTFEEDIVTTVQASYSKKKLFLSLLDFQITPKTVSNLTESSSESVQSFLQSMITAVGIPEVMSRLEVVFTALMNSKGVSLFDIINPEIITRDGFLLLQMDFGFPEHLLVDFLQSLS
Values of IC50 strictly less than 1000 nM map to rule met, and values of at least 1000 nM map to rule not met.

# compoundSmiles, className
records = [
    ("CC(C)OCC(=O)Nc1ccc(-c2nc3cc(C#N)ccc3o2)cc1", "rule met"),
    ("O=C(COc1ccccc1Cl)Nc1ccc(-c2nc3cc(Cl)ccc3o2)cc1", "rule not met"),
]

Lab note: confirm whether the reported IC50 for this molecule is below 1000 nM, equality not counting. molecule: O=C(COCc1ccccc1)Nc1ccc(-c2nc3cc(Cl)ccc3o2)cc1 rule not met

Lab note: confirm whether the reported IC50 for this molecule is below 1000 nM, equality not counting. molecule: Cc1ccccc1COCC(=O)Nc1ccc(-c2nc3cc(C#N)ccc3o2)cc1 rule not met

Lab note: confirm whether the reported IC50 for this molecule is below 1000 nM, equality not counting. molecule: O=C(COc1cccc(C(F)(F)F)c1)Nc1ccc(-c2nc3cc(Cl)ccc3o2)cc1 rule not met

Lab note: confirm whether the reported IC50 for this molecule is below 1000 nM, equality not counting. molecule: O=C(CSc1ccccc1)Nc1ccc(-c2nc3cc(Cl)ccc3o2)cc1 rule not met

---

- measurementProtocol: Oral bioavailability in mouse
- Format: ADME, organism-based
- conditionParameters: in vivo
endpointName: bioavailability (%)
Answers are plain numbers, in %.

# compoundSmiles, bioavailability [%]
rows = [
    ("N#Cc1ccc2oc(-c3ccc(NC(=O)COC(C(F)(F)F)C(F)(F)F)cc3)nc2c1", 4),
    ("CC(C)OCCNc1ccc(-c2nc3cc(C#N)ccc3o2)cc1", 30),
]

Moving on to another compound below.
Please look up its bioavailability: CC(OCCNc1ccc(-c2nc3cc(C#N)ccc3o2)cc1)(C(F)(F)F)C(F)(F)F 20

---

- measurementProtocol: Half life in mouse
- Assay type: ADME, organism-based
- conditionParameters: in vivo
endpointName: half-life (min)
Give bare numbers, in min.

Please look up its half-life: CC(OCCNc1ccc(-c2nc3cc(C#N)ccc3o2)cc1)(C(F)(F)F)C(F)(F)F 438

---

- measurementProtocol: Clearance in mouse
- Format: ADME, organism-based
- conditionParameters: in vivo
endpointName: clearance (mL/min/kg)
One number for each entry, in mL/min/kg.

Please look up its clearance: CC(OCCNc1ccc(-c2nc3cc(C#N)ccc3o2)cc1)(C(F)(F)F)C(F)(F)F 31
